Molecular target: UniProtKB P08173
Sequence (P08173 whole entry, looked up): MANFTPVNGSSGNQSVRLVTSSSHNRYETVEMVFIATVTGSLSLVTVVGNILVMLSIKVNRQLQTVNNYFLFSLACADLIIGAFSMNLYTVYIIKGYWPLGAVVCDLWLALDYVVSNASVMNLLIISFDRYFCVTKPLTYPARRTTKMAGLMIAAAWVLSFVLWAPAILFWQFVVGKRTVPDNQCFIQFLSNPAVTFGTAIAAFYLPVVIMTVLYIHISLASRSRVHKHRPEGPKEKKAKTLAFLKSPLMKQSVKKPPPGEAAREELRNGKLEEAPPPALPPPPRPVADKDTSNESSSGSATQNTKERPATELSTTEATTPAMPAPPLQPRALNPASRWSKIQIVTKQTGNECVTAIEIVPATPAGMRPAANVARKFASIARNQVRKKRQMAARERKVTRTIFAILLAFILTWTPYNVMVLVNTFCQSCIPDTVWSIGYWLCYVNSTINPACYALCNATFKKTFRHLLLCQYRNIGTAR
Experiment: potency of ACh potentiation at hM4 – cell-based, calcium mobilization, human receptor, SAR follow-up (AID 623938)
Settings: hM4 cells, PAM with EC20 ACh, active compounds read high
The source made the active and inactive calls. The rule behind the calls is not given here.
measure name: % ACh max

Previously resolved entries follow.
compound: COc1ccc(C)c2sc(NC(C)=O)nc12
measure name: % ACh max
recorded measurement: inactive
//
compound: COc1ccc(C)c2sc(NC(=O)c3ccc(F)c(F)c3)nc12
measure name: % ACh max
recorded measurement: inactive
//
compound: COc1ccc(C)c2sc(C(=O)NC3COC3)nc12
measure name: % ACh max
recorded measurement: 36.4%
//
compound: COc1ccc(C)c2sc(NC(=O)c3ccc(F)cc3F)nc12
measure name: % ACh max
recorded measurement: inactive
//
compound: COc1ccc(C)c2sc(NC(=O)CC(C)(C)C)nc12
measure name: % ACh max
recorded measurement: inactive

Field: next compound
Exam item: Would you mind telling me what % ACh max value was observed for CCCCC1CC1C(=O)Nc1nc2c(OC)ccc(C)c2s1 (stereo unspecified) ?
Marked response: inactive
